Attribution: ChEMBL document CHEMBL3988442

# testedSystem: Shiga toxin 2 (Escherichia coli O157:H7) (UniProt P09385+P09386)
# experimentDescription: E. coli 0.157:H7 Shiga Toxin SOP - stx2 screening assay
# Assay type: functional
# Set-up: scale not given: direction of the effect not stated beside the values
# measurementSetup: 30 µM
testReadout: Percent Effect (%)
Give bare numbers, in %.

Required: Percent Effect, one value per molecule below.
1. Cc1cc(C)n(CCC(=O)N2CCCC(n3cncn3)C2)n1 (stereo unspecified)
2. Cc1ccc(-n2nnc(CC(=O)N3CCSCC3)c2C)cc1
3. Cc1nnc(N2CC[C@H]3C[C@@H](C(=O)NC4CCCC4)O[C@H]3C2)s1
4. CC(C)C(=O)NC1CCN(Cc2cccc3c2OCCO3)CC1
5. Cc1csc(C2CCCCN2C(=O)CN(C)C2CC2)n1 (stereo unspecified)
6. Cc1cccc(OCCC(=O)NCC(C)(C)C(N)=O)c1
7. CC(C)c1nc2n(n1)CC(NCc1ccncc1)CC2 (stereo unspecified)
8. Cc1ccc(N2CCO[C@H]3CN(CC4CC4)C[C@H]32)nn1

1: 0.596; 2: -35.4; 3: -4.68; 4: 5.01; 5: -4.47; 6: 31.1; 7: -1.1; 8: 1.42

Could you report Percent Effect for every entry in the following list?
1. COc1ccc(C2=CCN(C(=O)C3CCCN(C(N)=O)C3)CC2)cc1 (stereo unspecified)
2. Cc1nc(CN2C[C@@H]3CN(C(=O)c4cccn4C)C[C@@H]3C2=O)cs1

1. 26.5
2. -4.43

So, CC(=O)NCCNC(=O)c1cnc(-c2ccccc2)nc1 ? Its Percent Effect was -11.3

* * *

# testedSystem: Aspartate--tRNA(Asp/Asn) ligase (Mycobacterium tuberculosis (strain ATCC 25618 / H37Rv)) (UniProt P9WFW3); further: in the data most compounds retested in dose-response had high values
# Sequence (whole entry): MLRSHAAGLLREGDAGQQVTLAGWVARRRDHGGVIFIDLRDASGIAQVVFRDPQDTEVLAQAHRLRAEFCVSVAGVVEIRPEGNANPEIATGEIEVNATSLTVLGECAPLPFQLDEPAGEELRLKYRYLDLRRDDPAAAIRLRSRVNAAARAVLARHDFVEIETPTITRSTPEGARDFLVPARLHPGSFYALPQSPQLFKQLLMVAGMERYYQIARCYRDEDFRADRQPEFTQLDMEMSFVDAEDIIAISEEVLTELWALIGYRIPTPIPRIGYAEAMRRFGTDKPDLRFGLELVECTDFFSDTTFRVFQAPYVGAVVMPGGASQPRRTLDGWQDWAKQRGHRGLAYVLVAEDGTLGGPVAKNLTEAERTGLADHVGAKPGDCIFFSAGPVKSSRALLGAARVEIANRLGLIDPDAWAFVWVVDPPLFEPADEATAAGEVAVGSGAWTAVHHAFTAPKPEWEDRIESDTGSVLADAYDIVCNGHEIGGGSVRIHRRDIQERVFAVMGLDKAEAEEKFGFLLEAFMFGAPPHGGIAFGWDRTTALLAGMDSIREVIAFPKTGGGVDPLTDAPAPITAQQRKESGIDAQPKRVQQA
# experimentDescription: Assay for Asp RNA synthetase-1 from Mycobacterium tuberculosis
# Type: functional
# Design: scale not given: direction of the effect not stated beside the values
# measurementSetup: 30 µM
Field: Percent Effect. Provide a value for each of the compounds that follow.
Numbers only, in %.

Look over these answered cases.
1. CS(=O)(=O)N1CCCC12CCCN(S(=O)(=O)c1ccc(F)cc1)C2 (configuration not stated)
-6.05
2. CNC(=O)c1cccc(NC(=O)Cn2nc(-c3cccs3)oc2=O)c1
-8.92
3. CCn1ccnc1-c1nc2cc(S(=O)(=O)N3CCCC3)ccc2n1C
-4.2

Give Percent Effect for each listed item.
1. CC(C)c1nc(CCNC(=O)NCc2ccnc(N(C)C)c2)cs1
2. c1ccc(Cn2cccn2)c(CNCC2CNc3ccnn3C2)c1 (configuration not stated)
3. CC1CCN(CCCNS(=O)(=O)c2cccc(F)c2)CC1

-0.713
1.88
11.5

For every item below, please supply its Percent Effect.
1. CC(NC(=O)CN(C)S(C)(=O)=O)c1nnc2n1CCCCC2 (configuration not stated)
2. O=C(Cc1ccccn1)N1CCc2nc(-c3cnccn3)nc(O)c2C1
3. Cc1ccccc1CN1CCCN(C2CCOC2=O)CC1 (configuration not stated)
4. Cc1cccc(C(=O)N2C[C@@H]3OCCN(c4ncccn4)[C@@H]3C2)n1
5. CN1CCC(Cc2cc(Nc3ncccn3)ncn2)CC1
6. CCN(C(=O)CCCOc1ccccc1F)c1ccncc1
7. COc1ccc2c(ccn2CCN)c1
8. Cc1nc(CN(C)C2CCN(CC(=O)N3CCOCC3)C2)no1 (configuration not stated)

5
-2.49
-0.409
2.48
7.7
-2.34
-3.77
5.36

Your task in this section: give Percent Effect for each listed record.
1. O=C(c1cnccn1)N1CCc2onc(CN3CCOCC3)c2C1
2. COC[C@@]12CCO[C@@H]1CCN(C(=O)Cc1ccccc1F)C2

1. -0.84
2. -2.8

Hi team, please reply with Percent Effect for each item in this list.
1. COc1ccc2c(c1)CN(Cc1nc3c(cnn3C)c(=O)[nH]1)CC2
2. O=C(COc1ccccc1)N1CCC[C@]2(C[C@H](OCC3CC3)CO2)C1
3. O=S(=O)(N(Cc1ccccn1)C1CC1)N1CCCC1c1ccco1 (configuration not stated)
4. CC(C)n1ncc2c1NC(=O)CC21C(=O)Nc2c(Cl)cccc21 (configuration not stated)
5. Cc1cccc(CN2C[C@@H]3CN(C(=O)[C@H]4CCCO4)C[C@@H]3C2=O)c1
6. CCN1CCC2(CC1)CC(NC(=O)N(C)C)c1cc(C)ccc12 (configuration not stated)
7. Cc1cc(NC(=O)C(C)N2CCCN(c3nccs3)CC2)on1 (configuration not stated)
8. COc1ccc(C2Nc3cc(Cl)ccc3C3=NCCN32)cc1OC (configuration not stated)

1: -4.4; 2: 1.3; 3: 2.62; 4: 4.56; 5: -6.69; 6: 2.85; 7: -2.75; 8: -3.07

* * *

# testedSystem: Tyrosyl-tRNA synthetase, putative (Trypanosoma cruzi (strain CL Brener)) (UniProt Q4DSP6)
# Sequence (Q4DSP6 as listed by the source): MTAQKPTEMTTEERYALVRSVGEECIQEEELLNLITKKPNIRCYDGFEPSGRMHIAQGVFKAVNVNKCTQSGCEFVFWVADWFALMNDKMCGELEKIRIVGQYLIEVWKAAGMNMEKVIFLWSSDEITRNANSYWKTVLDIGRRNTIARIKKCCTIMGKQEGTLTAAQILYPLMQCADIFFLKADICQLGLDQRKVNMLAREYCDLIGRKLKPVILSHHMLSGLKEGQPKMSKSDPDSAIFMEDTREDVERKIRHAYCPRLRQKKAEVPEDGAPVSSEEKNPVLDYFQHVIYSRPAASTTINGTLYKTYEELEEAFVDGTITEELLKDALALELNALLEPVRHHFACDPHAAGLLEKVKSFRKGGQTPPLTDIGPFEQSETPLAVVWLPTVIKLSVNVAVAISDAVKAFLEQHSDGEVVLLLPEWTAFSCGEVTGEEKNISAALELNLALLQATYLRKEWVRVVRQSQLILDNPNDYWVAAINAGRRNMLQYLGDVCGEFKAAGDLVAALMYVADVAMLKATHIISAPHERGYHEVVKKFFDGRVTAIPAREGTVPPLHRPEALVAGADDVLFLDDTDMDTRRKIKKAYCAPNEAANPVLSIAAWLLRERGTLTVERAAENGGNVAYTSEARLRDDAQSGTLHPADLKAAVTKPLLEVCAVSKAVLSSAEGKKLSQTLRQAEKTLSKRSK
# experimentDescription: Trypanosoma cruzi tyrosyl tRNA synthetase (TcYRS) _High Tyrosine SOP; further: in the data most compounds retested in dose-response had high values
# Assay type: functional
# Parameters: scale not given: direction of the effect not stated beside the values
# measurementSetup: 30 µM
testReadout: Percent Effect (%)
Numbers only, in %.

Consider the reported Percent Effect for these molecules:
1. Cc1noc(C)c1CN1CC[C@@H]2O[C@@H](COCC(C)C)CC[C@@H]21
2.08
2. O=C(N[C@H]1CN[C@H]2CCCO[C@H]21)c1cscn1
7.29
3. CCn1cc(CN2CCCN(C(=O)Cc3cccs3)CC2)cn1
10.3
4. O[C@@]1(c2ccccn2)CC[C@H]2CN(Cc3cccc(Cl)c3Cl)C[C@H]21
2.15
5. CN(C)CCN1CCCC12CCN(C(=O)c1cccnc1)CC2
3.87

Okay, here is my list. What is Percent Effect for each of these?
1. CN(C)C(=O)CN1CCN(C(=O)Cc2csc(-c3ncccn3)n2)CC1
2. COCC(=O)N1C[C@@H]2OCCN(Cc3c(C)noc3C)[C@@H]2C1
3. O=C([C@H]1C[C@H]2OCC[C@H]2N(Cc2ccncc2)C1)N1CCCCO1
4. CNCCc1nc2cc(F)ccc2[nH]1

1. 5.39
2. 5.79
3. 8.33
4. -4.92

Batch of 2 molecules: report Percent Effect for each.
1. CCn1ccnc1CN1CCCN(C(=O)Cc2ccc(C)nc2)CC1
2. CCOCC(O)CN1CCN(C(=O)Cc2ccc(C)nc2)CC1 (stereo unspecified)

1. -0.952
2. 11.3

* * *

Would you mind telling me the reported Percent Effect of each entry?
# testedSystem: Shiga toxin 2 (Escherichia coli O157:H7) (UniProt P09385+P09386)
# experimentDescription: E. coli 0.157:H7 Shiga Toxin SOP - stx2 screening assay
# Assay type: functional
# Parameters: scale not given: direction of the effect not stated beside the values
# measurementSetup: 30 µM
One number for each entry, in %.

1) COc1cc2ncn(CC(=O)NCCCN(C)C)c(=O)c2cc1OC
-29.9
2) CCc1nc(C2CCCN2CC(=O)Nc2c(C)n[nH]c2C)no1 (stereo unspecified)
2.91
3) Cc1nc2c(c(NC3CC3)n1)CCN(C(=O)C(C)(C)O)CC2
-3.14
4) Cc1ccc(NC2CCN(C(=O)COc3cccnc3)CC2)nn1
-129
5) CO[C@H]1CN(C(=O)c2ccccn2)[C@@H]2CCCO[C@H]12
0.669

Query Cn1c(CN2CCOCC2)nnc1C1CCN(C(=O)C2CCCC2)CC1 yields Percent Effect of -33.5

* * *

# testedSystem: Aspartate--tRNA(Asp/Asn) ligase (Mycobacterium tuberculosis (strain ATCC 25618 / H37Rv)) (UniProt P9WFW3); further: in the data most compounds retested in dose-response had high values
# experimentDescription: Assay for Asp RNA synthetase-1 from Mycobacterium tuberculosis
# Type: functional
# Parameters: scale not given: direction of the effect not stated beside the values
# measurementSetup: 30 µM
testReadout: Percent Effect (%)
Numbers only, in %.

Here is how some molecules turned out for Percent Effect.
1) O=C(NCC1CC1)[C@H]1C[C@@H]2CCN(Cc3nccs3)C[C@@H]2O1
-3.13
2) CN(C)C(=O)CN1CCC2(CCN(Cc3nccs3)CC2)C1=O
7.45
3) Cc1nc(C)n(C2CCCN(C(=O)c3sccc3C3CC3)C2)n1 (stereo unspecified)
-3.11

Please give Percent Effect, item by item, for the list that follows.
1. CNCC(=O)N1CCCC(c2cccc(Nc3nc(C)cc(C)n3)n2)C1 (stereo unspecified)
2. CS(=O)(=O)NCc1nnc2n1CCN(CC1CC1)C2
3. O=C1CC(c2ccsc2)c2sc(C(=O)O)c(-c3ccccc3)c2N1 (stereo unspecified)

1. 3.29
2. 2.77
3. 1.95
